pIC50 values, listed per item
- System: DU-145
- testDescription: Cytotoxicity against human DU145 cells assessed as inhibition of cell viability after 72 hrs by MTS assay
- Format: functional, cell-based
- condition: DU-145, 72 h
In textbook form, pIC50 equals minus log to base ten of the concentration in mol/L.

[[record]]
structurestring = "CC[C@@]1(O)C(=O)OCc2c1cc1n(c2=O)Cc2cc3cc(OCc4cn(CCCCCCC(=O)NO)nn4)ccc3nc2-1"
val = 5.69

[[record]]
structurestring = "CCc1c2c(nc3ccc(OCc4cn(CCCCCC(=O)NO)nn4)cc13)-c1cc3c(c(=O)n1C2)COC(=O)[C@]3(O)CC"
val = 5.69

[[record]]
structurestring = "CCc1c2c(nc3ccc(OCc4cn(CCCCCCCC(=O)NO)nn4)cc13)-c1cc3c(c(=O)n1C2)COC(=O)[C@]3(O)CC"
val = 5.45


Turning to the following molecule.
Hey, DU-145 data for "CCc1c2c(nc3ccc(OCc4cn(CCCCC(=O)NO)nn4)cc13)-c1cc3c(c(=O)n1C2)COC(=O)[C@]3(O)CC" : pIC50 came out at 5.37

* * *

- measurementTarget: Histone deacetylase 1 (Homo sapiens)
- Sequence (Q13547 whole entry): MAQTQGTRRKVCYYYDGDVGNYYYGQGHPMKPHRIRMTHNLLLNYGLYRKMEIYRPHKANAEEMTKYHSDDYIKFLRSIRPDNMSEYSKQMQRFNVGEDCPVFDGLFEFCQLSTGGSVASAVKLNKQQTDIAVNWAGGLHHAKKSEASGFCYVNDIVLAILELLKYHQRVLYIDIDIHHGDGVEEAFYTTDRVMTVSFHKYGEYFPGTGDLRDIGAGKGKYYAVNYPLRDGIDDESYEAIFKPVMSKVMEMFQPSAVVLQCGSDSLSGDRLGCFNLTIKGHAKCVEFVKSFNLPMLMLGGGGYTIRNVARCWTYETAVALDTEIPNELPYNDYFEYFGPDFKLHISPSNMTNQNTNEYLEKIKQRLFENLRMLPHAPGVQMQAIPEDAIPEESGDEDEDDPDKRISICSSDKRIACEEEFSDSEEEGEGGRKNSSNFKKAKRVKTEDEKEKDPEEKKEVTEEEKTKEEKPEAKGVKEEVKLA
- testDescription: Inhibition of HDAC1 in human HeLa cells using Fluor-de-Lys as substrate after 15 mins by fluorescence assay
Reported pIC50 values for a set of compounds
# pIC50 is unitless: minus log10 of the molar concentration; print number only

[[record]]
structurestring = "CC[C@@]1(O)C(=O)OCc2c1cc1n(c2=O)Cc2cc3cc(OCc4cn(CCCCCCC(=O)NO)nn4)ccc3nc2-1"
measurementtarget = "Histone deacetylase 1 (Homo sapiens)"
measuredparameter = "pIC50"
val = 7.43

[[record]]
structurestring = "CCc1c2c(nc3ccc(OCc4cn(CCCCCCC(=O)NO)nn4)cc13)-c1cc3c(c(=O)n1C2)COC(=O)[C@]3(O)CC"
measurementtarget = "Histone deacetylase 1 (Homo sapiens)"
measuredparameter = "pIC50"
val = 7.30

[[record]]
structurestring = "CC[C@@]1(O)C(=O)OCc2c1cc1n(c2=O)Cc2cc3cc(OCc4cn(CCCCC(=O)NO)nn4)ccc3nc2-1"
measurementtarget = "Histone deacetylase 1 (Homo sapiens)"
measuredparameter = "pIC50"
val = 6.94

[[record]]
structurestring = "CCc1c2c(nc3ccc(OCc4cn(CCCCCCCC(=O)NO)nn4)cc13)-c1cc3c(c(=O)n1C2)COC(=O)[C@]3(O)CC"
measurementtarget = "Histone deacetylase 1 (Homo sapiens)"
measuredparameter = "pIC50"
val = 6.43


Consider the additional compound presented here.
Note to self: pIC50 of "CCc1c2c(nc3ccc(OCc4cn(CCCCCC(=O)NO)nn4)cc13)-c1cc3c(c(=O)n1C2)COC(=O)[C@]3(O)CC" with Histone deacetylase 1 (Homo sapiens) was 6.89

* * *

The entries below come with measured IC50 values attached.
- measurementTarget: Histone deacetylase
- testDescription: Inhibition of HDAC in human HeLa cells using Fluor-de-Lys as substrate after 15 mins by fluorescence assay
- Format: cell-based
A number alone suffices; assume nM.

[[record]]
structurestring = "CC[C@@]1(O)C(=O)OCc2c1cc1n(c2=O)Cc2cc3cc(OCc4cn(CCCCCCC(=O)NO)nn4)ccc3nc2-1"
measurementtarget = "Histone deacetylase"
measuredparameter = "IC50"
val = 56.2


Per the records, this molecule ( "CCc1c2c(nc3ccc(OCc4cn(CCCCC(=O)NO)nn4)cc13)-c1cc3c(c(=O)n1C2)COC(=O)[C@]3(O)CC" ) has IC50 equal to 155.4

"CCc1c2c(nc3ccc(OCc4cn(CCCCCC(=O)NO)nn4)cc13)-c1cc3c(c(=O)n1C2)COC(=O)[C@]3(O)CC" has a reported IC50 of 120.7

Form field IC50, entry "CCc1c2c(nc3ccc(OCc4cn(CCCCCCCC(=O)NO)nn4)cc13)-c1cc3c(c(=O)n1C2)COC(=O)[C@]3(O)CC" : 212.3

Looking up "CCc1c2c(nc3ccc(OCc4cn(CCCCCCC(=O)NO)nn4)cc13)-c1cc3c(c(=O)n1C2)COC(=O)[C@]3(O)CC" , I see its IC50 listed as 64.65

// sample "CC[C@@]1(O)C(=O)OCc2c1cc1n(c2=O)Cc2cc3cc(OCc4cn(CCCCCC(=O)NO)nn4)ccc3nc2-1" , its IC50 was 112.2

Query "CC[C@@]1(O)C(=O)OCc2c1cc1n(c2=O)Cc2cc3cc(OCc4cn(CCCCC(=O)NO)nn4)ccc3nc2-1" yields IC50 of 144.5
